Item-by-item account of activity at 10 µM
test system: M14; assay: NCI one-dose screen; type: cell-based; conditions: Homo sapiens; M14, 10 µM; read-out: Growth Percent

A selection of reference data follows.
CN(C)c1ccc(/C=C/C(=O)c2ccc(-n3cc(CN4CCN(c5cc6c(cc5F)c(=O)c(C(=O)O)cn6C5CC5)CC4)nn3)cc2)cc1 :: 87.4%
COc1ccc(/C=C/C(=O)c2ccc(-n3cc(CN4CCN(c5cc6c(cc5F)c(=O)c(C(=O)O)cn6C5CC5)CC4)nn3)cc2)cc1OC :: 59%
O=C(/C=C/c1ccc(F)cc1)c1ccc(-n2cc(CN3CCN(c4cc5c(cc4F)c(=O)c(C(=O)O)cn5C4CC4)CC3)nn2)cc1 :: 60.9%

In the following, a different compound is considered.
Exercise: Which value of activity at 10 µM has been reported for `O=C(/C=C/c1cccc(Cl)c1)c1ccc(-n2cc(CN3CCN(c4cc5c(cc4F)c(=O)c(C(=O)O)cn5C4CC4)CC3)nn2)cc1` in the records?
Solution: 79%
